Assay: Effect on AURKA level in human MV4-11 cells assessed as fold change at 100 nM measured after 4 hrs
Format: functional
Quick list: fold change (FC) per entry.

compound	fold change (FC)
Cc1sc2c(c1C)C(c1ccc(Cl)cc1)=N[C@@H](CC(=O)N1CCC(CN3CCN(c4ccc5c(c4)oc(=O)n5C4CCC(=O)NC4=O)CC3)CC1)c1nnc(C)n1-2 (some centres undefined)	-0.94
Cc1sc2c(c1C)C(c1ccc(Cl)cc1)=N[C@@H](CC(=O)N1CCC(CN3CCN(c4ccc(NC5CCC(=O)NC5=O)c(F)c4)CC3)CC1)c1nnc(C)n1-2 (some centres undefined)	-0.77
Cc1sc2c(c1C)C(c1ccc(Cl)cc1)=N[C@@H](CC(=O)N1CCC(CN3CCN(c4ccc5c(c4)n(C)c(=O)n5C4CCC(=O)NC4=O)CC3)CC1)c1nnc(C)n1-2 (some centres undefined)	-1.01
Cc1sc2c(c1C)C(c1ccc(Cl)cc1)=N[C@@H](CC(=O)N1CCC(CN3CCN(c4ccc5c(c4)CN(C4CCC(=O)NC4=O)C5=O)CC3)CC1)c1nnc(C)n1-2 (some centres undefined)	-0.9
Cc1sc2c(c1C)C(c1ccc(Cl)cc1)=N[C@@H](CC(=O)N1CCC(CN3CCN(c4ccc(C5CCC(=O)NC5=O)cc4)CC3)CC1)c1nnc(C)n1-2 (some centres undefined)	-0.97
Cc1sc2c(c1C)C(c1ccc(Cl)cc1)=N[C@@H](CC(=O)N1CCC(CN3CCN(c4ccc(N5CCC(=O)NC5=O)cc4)CC3)CC1)c1nnc(C)n1-2	-0.74
Cc1sc2c(c1C)C(c1ccc(Cl)cc1)=N[C@@H](CC(=O)N1CCC(CN3CCN(c4cc5c(cc4F)C(=O)N(C4CCC(=O)NC4=O)C5=O)CC3)CC1)c1nnc(C)n1-2 (some centres undefined)	-0.84
Cc1sc2c(c1C)C(c1ccc(Cl)cc1)=N[C@@H](CC(=O)N1CCC(CN3CCN(c4ccc(NC5CCC(=O)NC5=O)cc4)CC3)CC1)c1nnc(C)n1-2 (some centres undefined)	-0.55
Cc1sc2c(c1C)C(c1ccc(Cl)cc1)=N[C@@H](CC(=O)N1CCC(CN3CCN(c4ccc5c(c4)C(=O)N(C4CCC(=O)NC4=O)C5=O)CC3)CC1)c1nnc(C)n1-2 (some centres undefined)	-0.95

The reported numbers originate from ChEMBL document CHEMBL6121036.
